Hey, just so you know, these numbers are from patent US20260242478A1.

target: Anti-CD28 Fab (SEQ ID NOs: 696, 697) (biotinylated (site not given)); test: phage binding ELISA on captured anti-CD28 Fab; competitor: CD28 antigen added to the wells before the phage
Sequence (VH, as listed by the source, chain 1 of 2): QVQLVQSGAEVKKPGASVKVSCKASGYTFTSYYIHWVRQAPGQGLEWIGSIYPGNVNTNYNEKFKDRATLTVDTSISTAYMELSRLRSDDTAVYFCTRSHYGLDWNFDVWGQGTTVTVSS
Sequence (VL, as listed by the source, chain 2 of 2): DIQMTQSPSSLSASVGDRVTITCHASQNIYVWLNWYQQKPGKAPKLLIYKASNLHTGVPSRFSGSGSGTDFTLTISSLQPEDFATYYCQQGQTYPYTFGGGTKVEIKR
Parameter: Anti-CD28 Fab signal in the presence of CD28

- Binder: "QCAAGASYPWPMCL [Phage-1398]"
  Value measured: 0.08
- Binder: "TCSAGATWTWPQCL [Phage-1391]"
  Value measured: 0.08
- Binder: "LCAAGATYAWPLCL [Phage-1392]"
  Value measured: 0.07
